Would you mind telling me the reported pIC50 of each entry?
Biological target: glutathione S-transferase (GST)-fused full-length human Syk protein (Homo sapiens, UniProt P43405)
Construct: (GST)-fused full-length human Syk protein; GST (glutathione S-transferase); purchased Carna Biosciences
Experiment: Syk enzyme assay
Format: biochemical
Conditions: Syk enzyme assay, Test Example 1; read-out: IC50 of Syk-inhibitory activity
pIC50: −log10 of the molar value.

                                   molecule  observed_measurement
0  COC(=O)c1cc(Nc2nc(N[C@@H]3CCCC[C@@H]3N)c(F)cc2C(N)=O)cnc1N (relative stereo)          7.30 to 8.00
1  CCOc1ncc(Nc2nc(N[C@@H]3CCCC[C@@H]3N)c(F)cc2C(N)=O)cc1Cl          7.30 to 8.00
2  NC(=O)c1cc(F)c(N[C@@H]2CCCC[C@@H]2N)nc1Nc1cnc(N2CCOCC2)c(C2CC2)c1          7.30 to 8.00
3  NC(=O)c1cc(F)c(NC2CCCCC2N)nc1Nc1cncc(-c2cccc3cnccc23)c1 (stereo not shown)          7.00 to 7.30
4  CC[C@@H](Nc1nc(Nc2ccc3cnn(C)c3c2)c(C(N)=O)cc1F)[C@H](C)N                > 8.00
5  NC(=O)c1cc(F)c(NC2CCCCC2N)nc1Nc1cccc2c1cnn2CC1CC1 (stereo not shown)                > 8.00
6  CCOCCOCCn1ncc2cc(Nc3nc(N[C@@H]4CCCC[C@@H]4N)c(F)cc3C(N)=O)ccc21 (relative stereo)                > 8.00
7  Cc1nn(CC(F)F)c2cc(Nc3nc(N[C@H](CC4CC4)[C@H](C)N)c(F)cc3C(N)=O)ccc12                > 8.00
8  CCCOc1cc(Nc2nc(NC3CCCCC3N)c(F)cc2C(N)=O)ccn1 (stereo not shown)                > 8.00
9  CCOc1nc2ccc(Nc3nc(NC4CCCCC4N)c(F)cc3C(N)=O)cc2nc1OCC (stereo not shown)                > 8.00

Quick request: pIC50 for each listed item, please.
1. COc1ncc(Nc2nc(NC3CCCCC3N)c(F)cc2C(N)=O)cc1-c1ccco1 (stereo not shown)
2. COc1cc(Nc2nc(N[C@H](CC(C)C)[C@H](C)N)c(F)cc2C(N)=O)cc(OC)n1

result:
["7.30 to 8.00", "> 8.00"]

Batch request: pIC50 per item, same order as input.
1. COCCn1ccc2cc(Nc3nc(N[C@@H]4CCCC[C@@H]4N)c(F)cc3C(N)=O)cc(F)c21 (relative stereo)
2. NC(=O)c1cc(F)c(N[C@@H]2CCCC[C@@H]2N)nc1Nc1ccc(C(F)(F)F)nc1 (relative stereo)
3. COc1cc(Nc2nc(NC[C@H](C)N)c(F)cc2C(N)=O)cc(OC)c1
4. CCOC(=O)c1c(F)cc2c(Nc3nc(N[C@@H]4CCCC[C@@H]4N)c(F)cc3C(N)=O)cccn12
5. CCOc1nn(CC)c2ccc(Nc3nc(N[C@H](CC(C)C)[C@H](C)N)c(F)cc3C(N)=O)cc12
6. CCOc1ncc(Nc2nc(N[C@@H]3CCCC[C@@H]3N)c(F)cc2C(N)=O)cc1-n1cccn1
7. CCOc1ncc(Nc2nc(N[C@@H]3CCCC[C@@H]3N)c(F)cc2C(N)=O)cc1N1CCOCC1
8. COc1cc(Nc2nc(NCCc3cnc[nH]3)c(F)cc2C(N)=O)cc(OC)c1

result:
> 8.00
7.00 to 7.30
> 8.00
> 8.00
> 8.00
7.30 to 8.00
6.00 to 7.00
6.00 to 7.00

Please give pIC50, item by item, for the list that follows.
1. CCOc1ncc(Nc2nc(N[C@@H]3CCCC[C@@H]3N)c(F)cc2C(N)=O)cc1C1CC1
2. COc1cc(Nc2nc(N[C@@H](C(N)=O)c3ccccc3)c(F)cc2C(N)=O)cc(OC)c1
3. NC(=O)c1cc(F)c(N[C@@H]2CCCC[C@@H]2N)nc1Nc1cc(OCc2ccccc2)c2ncccc2c1 (relative stereo)
4. C[C@@H]1CN(c2cncc(Nc3nc(N[C@@H]4CCCC[C@@H]4N)c(F)cc3C(N)=O)c2)C[C@H](C)O1
5. COc1cccc(-c2cc(Nc3nc(N[C@@H](CN)CC(C)C)c(F)cc3C(N)=O)ccn2)c1
6. NC(=O)c1cc(F)c(N[C@H](c2ccccc2)[C@@H](N)c2ccccc2)nc1Nc1ccc2ncccc2c1 (racemic)
7. COCC(C)Oc1ccc2ccc(Nc3nc(NC4CCCCC4N)c(F)cc3C(N)=O)cc2n1 (stereo not shown)

result:
["7.30 to 8.00", "7.30 to 8.00", "7.30 to 8.00", "7.30 to 8.00", "> 8.00", "> 8.00", "> 8.00"]

query: Give its pIC50 value. Item: CC(C)COc1nccc2cc(Nc3nc(N[C@@H]4CCCC[C@@H]4N)c(F)cc3C(N)=O)ccc12 (relative stereo)
result: > 8.00

====

Field: pIC50. Provide a value for each of the compounds that follow.
Target: glutathione S-transferase (GST)-fused full-length human Syk protein (Homo sapiens, UniProt P43405)
Construct: (GST)-fused full-length human Syk protein; GST (glutathione S-transferase); purchased Carna Biosciences
Assay: Syk enzyme assay
Assay type: biochemical
Details: Syk enzyme assay, Test Example 1; read-out: IC50 of Syk-inhibitory activity
pIC50: −log10 of the molar value.

Consider the reported pIC50 for these compounds:
In [3]: df
Out[3]:
                         chemical_structure  observed_measurement
0  COCCOc1ncc(Nc2nc(N[C@@H]3CCCC[C@@H]3N)c(F)cc2C(N)=O)cc1F          7.30 to 8.00
1  COCCOc1cc(Nc2nc(N[C@H](CC(C)C)[C@H](C)N)c(F)cc2C(N)=O)ccn1                > 8.00
2  CC[C@H](N)[C@@H](CC)Nc1nc(Nc2cncc(C3CC3)c2)c(C(N)=O)cc1F                > 8.00

State recorded pIC50 for all listed compounds.
1. CCc1nn(C)c2ccc(Nc3nc(N[C@@H]4CCCC[C@@H]4N)c(F)cc3C(N)=O)cc12
2. CC[C@@H](Nc1nc(Nc2ccnc(-c3ccccc3F)c2)c(C(N)=O)cc1F)[C@H](C)N
3. NC(=O)c1cc(F)c(N[C@@H]2CCCC[C@@H]2N)nc1Nc1ccc(N2CCOCC2)nc1

result:
> 8.00
> 8.00
7.30 to 8.00

====

Molecular target: glutathione S-transferase (GST)-fused full-length human Syk protein (Homo sapiens)
Construct: (GST)-fused full-length human Syk protein; GST (glutathione S-transferase); purchased Carna Biosciences
Assay: Syk enzyme assay
Type: biochemical
Conditions: Syk enzyme assay, Test Example 1; read-out: IC50 of Syk-inhibitory activity
Property Name: IC50

Completed entries (count: 5):
                                   compound  observed_measurement
0  NC(=O)c1cc(F)c(N[C@@H]2CCCC[C@@H]2N)nc1Nc1cncc(NC(=O)c2ccccn2)c1 (relative stereo) [Example 027-020]       0.01 to 0.05 µM
1  NC(=O)c1cc(F)c(N[C@@H]2CCCC[C@@H]2N)nc1Nc1cc(F)cc2[nH]ccc12 (relative stereo) [Example 004-082]             < 0.01 µM
2  Cn1cc(Nc2nc(N[C@@H]3CCCC[C@@H]3N)c(F)cc2C(N)=O)cc(-n2ccnn2)c1=O (relative stereo) [Example 006-428]        0.05 to 0.1 µM
3  CC(=O)N(C)c1cccc2cc(Nc3nc(N[C@@H]4CCCC[C@@H]4N)c(F)cc3C(N)=O)cnc12 [Example 004-034]        0.05 to 0.1 µM
4  COc1nn(C)c2ccc(Nc3nc(N[C@H](CC(C)C)[C@H](C)N)c(F)cc3C(N)=O)cc12 [Example 006-587]             < 0.01 µM

Provide reported IC50 for each item, in the same order as listed.
1. COCCOc1nccc2c(Nc3nc(NC4CCCCC4N)c(F)cc3C(N)=O)cccc12 (stereo not shown) [Example 002-102]
2. NC(=O)c1cc(F)c(N[C@@H]2CCCC[C@@H]2N)nc1Nc1cncc(-c2ccco2)c1 (relative stereo) [Example 004-058]
3. NC(=O)c1cc(F)c(N[C@H](Cc2ccccc2)c2ncc[nH]2)nc1Nc1ccc2ncccc2c1 [Example 012-029]
4. NC(=O)c1cc(F)c(N[C@@H]2CCCC[C@@H]2N)nc1Nc1cncc(-n2cccc2)c1 (relative stereo) [Example 006-123]

result:
1. 0.01 to 0.05 µM
2. < 0.01 µM
3. 0.1 to 1 µM
4. < 0.01 µM

Each of the following entries comes with a recorded value; kindly state IC50 for each.
1. NC(=O)c1cc(F)c(N[C@@H]2CCCC[C@@H]2N)nc1Nc1ccc2nc(-n3cccn3)ccc2c1 (relative stereo) [Example 004-203]
2. CC[C@@H](Nc1nc(Nc2cccc3c2cnn3C)c(C(N)=O)cc1F)[C@H](C)N [Example 006-268]
3. CCCC[C@H](CN)Nc1nc(Nc2ccc3c(cnn3C)c2)c(C(N)=O)cc1F [Example 006-292]
4. Cc1cncc(Nc2nc(N[C@H](c3ccccc3)[C@@H](N)c3ccccc3)c(F)cc2C(N)=O)c1 (racemic) [Example 006-140]
5. NCC(CCC(F)(F)F)Nc1nc(Nc2ccc3ncccc3c2)c(C(N)=O)cc1F (stereo not shown) [Example 006-304]
6. COc1cc(Nc2nc(N[C@@H]3COCC[C@@H]3N)c(F)cc2C(N)=O)ccn1 [Example 006-532]

result:
1: < 0.01 µM; 2: < 0.01 µM; 3: < 0.01 µM; 4: 0.05 to 0.1 µM; 5: < 0.01 µM; 6: 0.1 to 1 µM

Provide the reported IC50 of each entry below, same order.
1. COCCOc1cc(Nc2nc(N[C@H](c3ccc(F)cc3)[C@H](C)N)c(F)cc2C(N)=O)ccn1 [Example 006-559]
2. C[C@H](N)[C@@H](CC1CC1)Nc1nc(Nc2ccc3c(c2)c(F)nn3CC(F)F)c(C(N)=O)cc1F [Example 006-510]
3. CCc1ncc(Nc2nc(N[C@@H]3CCCC[C@@H]3N)c(F)cc2C(N)=O)cc1Cl [Example 006-568]
4. CCC[C@@H](Nc1nc(Nc2ccnc(-n3cncn3)c2)c(C(N)=O)cc1F)[C@H](C)N [Example 006-300]

result:
1: < 0.01 µM; 2: < 0.01 µM; 3: 0.05 to 0.1 µM; 4: < 0.01 µM

The reported measurements were obtained from patent US8895585B2.
